# assay.protocol: Plasma pharmacokinetics after intraperitoneal injection in mice
# Assay type: in vivo
# condition.summary: mouse, male mice, 5 mg/kg IP, read-out: Vz/F
# Experimental: Example B: Pharmacokinetics of Selected Compounds Mice were injected intraperitoneally with (5 mg/kg) of the compound of Example 71 or Example 78 and plasma samples were taken at intervals of […], 0.25 hr, 0.5 hr. 1.0 hr, 3.0 hr, and 6.0 hr post-administration in order to analyze the pharmacokinetic profile of these compounds. […]
quantity.measured: Vd/F (L/kg)
Kindly answer with a numeric value in L/kg, unit omitted.

According to the records, this compound Cc1cc(C)c(Oc2ccc3cnccc3n2)c(-c2ccccc2)c1 displays Vd/F of 15.2
